Provenance of the data: patent US6500842B1

target: CMV polymerase (Human cytomegalovirus, UniProt P08546); construct: made in house; host or cells: recombinant baculovirus-infected SF-9 cells; assay: modified version of the HCMV polymerase assay (100% DMSO dilution, DTT, different enzyme lot); type: biochemical; details: Table 13, last compound, tested under modified conditions; read-out: IC50
ASSAY METRIC: pIC50
Note: pIC50 values are expressed as the negative base-10 logarithm of concentration in M.

Tell me pIC50 of O=C(NCCCc1ccccc1)c1ccc2ccc(/C=C/c3ccccc3)nc2c1O when tested on CMV polymerase (Human cytomegalovirus, UniProt P08546).
5.29

* * *

target: HCMV polymerase (Human cytomegalovirus, UniProt P08546); construct: made in house; host or cells: recombinant baculovirus-infected SF-9 cells; assay: HCMV polymerase assay (scintillation proximity assay); format: biochemical; settings: pol type CMV; Table 1; read-out: CMV pol Assay IC50
Sequence (P08546 whole entry): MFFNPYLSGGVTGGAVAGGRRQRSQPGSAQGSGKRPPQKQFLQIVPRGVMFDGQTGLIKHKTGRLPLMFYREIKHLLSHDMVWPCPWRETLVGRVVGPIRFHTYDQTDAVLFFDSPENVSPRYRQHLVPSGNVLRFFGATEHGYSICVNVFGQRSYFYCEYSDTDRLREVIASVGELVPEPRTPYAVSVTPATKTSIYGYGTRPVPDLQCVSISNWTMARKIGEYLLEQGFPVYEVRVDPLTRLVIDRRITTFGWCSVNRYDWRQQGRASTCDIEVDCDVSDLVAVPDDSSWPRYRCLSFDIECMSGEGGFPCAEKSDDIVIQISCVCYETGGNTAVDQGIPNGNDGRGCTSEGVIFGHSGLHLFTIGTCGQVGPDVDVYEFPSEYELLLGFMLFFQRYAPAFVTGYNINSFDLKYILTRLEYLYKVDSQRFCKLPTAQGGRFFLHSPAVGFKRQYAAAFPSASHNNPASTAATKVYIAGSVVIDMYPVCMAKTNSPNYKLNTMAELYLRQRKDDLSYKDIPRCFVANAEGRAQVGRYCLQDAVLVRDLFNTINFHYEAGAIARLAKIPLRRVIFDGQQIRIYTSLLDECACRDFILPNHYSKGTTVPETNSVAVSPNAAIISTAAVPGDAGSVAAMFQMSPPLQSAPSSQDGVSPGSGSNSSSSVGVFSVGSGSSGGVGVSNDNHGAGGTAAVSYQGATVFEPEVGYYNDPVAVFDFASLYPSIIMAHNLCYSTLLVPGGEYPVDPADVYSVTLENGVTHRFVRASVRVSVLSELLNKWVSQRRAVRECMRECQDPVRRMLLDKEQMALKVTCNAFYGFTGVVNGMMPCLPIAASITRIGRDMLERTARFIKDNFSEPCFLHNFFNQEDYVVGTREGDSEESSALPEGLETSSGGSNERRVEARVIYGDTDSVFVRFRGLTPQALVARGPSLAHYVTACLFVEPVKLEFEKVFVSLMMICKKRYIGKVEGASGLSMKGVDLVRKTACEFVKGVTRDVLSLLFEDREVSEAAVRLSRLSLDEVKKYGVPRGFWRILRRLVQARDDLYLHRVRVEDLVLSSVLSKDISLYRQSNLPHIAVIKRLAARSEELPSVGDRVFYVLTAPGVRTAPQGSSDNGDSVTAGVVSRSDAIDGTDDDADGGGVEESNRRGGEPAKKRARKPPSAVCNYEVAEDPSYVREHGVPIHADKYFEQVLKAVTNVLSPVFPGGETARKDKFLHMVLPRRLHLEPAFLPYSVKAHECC
Please go through the items and note down their log10(IC50).
Units before log transform: µM; reported quantity: IC50; transform: log10.

Answer with reported log10(IC50) of O=C(Nc1ccc(Cl)cc1)c1ccc2cccnc2c1O [Example 3]
0.85

Tell me measured log10(IC50) for O=C(NCc1ccc(Cl)cc1)c1ccc2cccnc2c1O [Example 1] please.
1.01

Consider the molecule O=C(NCc1ccc([N+](=O)[O-])cc1)c1ccc2cccnc2c1O [Example 12] and give its recorded log10(IC50).
1.20

Assign log10(IC50) to the following record: O=C(Nc1nnc(Cc2ccc(Cl)cc2)s1)c1ccc2cccnc2c1O [Example 2]
0.63

Look up and state reported log10(IC50) for Cc1ccc2ccc(C(=O)NCc3ccc(Cl)cc3)c(O)c2n1 [Example 10]
1.28

// Input: O=C(NCc1ccc(Cl)cc1)c1cc(Cl)c2cccnc2c1O [Example 11] . Output its log10(IC50) only.
0.11

Entry O=C(NC1=NC(=O)C(c2ccc(Cl)cc2)S1)c1ccc2cccnc2c1O (stereo not shown) [Example 5] needs its log10(IC50) filled in; supply it.
0.83

Given the molecule O=C(Nc1nnc(-c2ccc(Cl)cc2)s1)c1ccc2cccnc2c1O [Example 14] , write its reported log10(IC50).
1.37

# return recorded log10(IC50) for input O=C(Nc1ccc(Cl)cc1)c1cc(Cl)c2cccnc2c1O [Example 15]
0.20

Give a short answer stating reported log10(IC50) for O=C(Nc1ncc(-c2ccc(Br)s2)s1)c1ccc2cccnc2c1O [Example 7] .
0.84

* * *

ASSAY METRIC: melting point

Look up and report measured melting point for this entry: O=C(Nc1nnc(C(F)(F)F)s1)c1ccc2cccnc2c1O [Example 243]
300 to 302 °C (dec.)

Identify measured melting point associated with COc1ccc(CCc2ccc3ccc(C(=O)NCC(O)c4ccccc4)c(O)c3n2)cc1 (stereo not drawn) [Example 73]
69 to 72 °C

State, in one line, measured melting point of O=C(NCc1ccc(Cl)cc1)c1ccc2ccc(/C=C/c3ccccc3)nc2c1O [Example 51]
192 to 194 °C

Specify measured melting point for O=C(NCc1ccc(Cl)cc1)c1ccc2c(O)cc(C(F)(F)F)nc2c1O [Example 46] .
135 to 140 °C (dec.)

Identify measured melting point corresponding to C[Si](C)(C)c1cc(Cl)c2cccnc2c1O [Example 44, 5-Chloro-7-(trimethylsilyl)-8-quinolinol]
109 to 111 °C

Consider the compound Cc1ccc(F)cc1NC(=O)c1ccc2cccnc2c1O [Example 165] and give its recorded melting point.
209 to 210 °C

Provide melting point value for the following compound: O=C(Nc1cc(C(F)(F)F)ccc1Cl)c1ccc2cccnc2c1O [Example 164]
210 to 211 °C

Give the measured melting point for Cc1ccc2c(Cl)cc(S(=O)(=O)Nc3ccc(Cl)cc3)c(O)c2n1 [Example 28]
284 to 287 °C (dec.)

For Cc1ccc2c(Cl)cc(S(=O)(=O)NCCc3ccccn3)c(O)c2n1 [Example 62] , write its melting point.
153 to 155 °C

Answer with the recorded melting point for the compound listed here: O=C(Nc1ncc(-c2ccc(Br)s2)s1)c1ccc2cccnc2c1O [Example 7]
279 to 281 °C (dec.)

Consider the compound CC(C)[Si](c1cc(Cl)c2cccnc2c1O)(C(C)C)C(C)C [Example 42] and give its recorded melting point.
107 to 108 °C

Quote melting point reported for C[Si](C)(c1ccccc1)c1cc(Cl)c2cccnc2c1O [Example 45] please.
101 to 103 °C

Return reported melting point. Input compound: N#CCNC(=O)c1ccc2cccnc2c1O [Example 72]
206 to 208 °C (dec.)

Supply melting point value. Item: Cc1ccc2c(Cl)cc(S(=O)(=O)NCCc3ccc(NS(=O)(=O)c4ccccc4)cc3)c(O)c2n1 [Example 66]
269 to 272 °C

Look up and report measured melting point for this entry: COc1ccc(/C=C/c2ccc3ccc(C(=O)NCCSc4ccccc4)c(O)c3n2)cc1 [Example 54]
163 to 165 °C

Report melting point, nothing else, for this compound: O=C(Nc1nnc(Br)s1)c1ccc2cccnc2c1O [Example 244]
250 °C (dec.)

Give the value of melting point reported for the following: Cc1ccc2c(Cl)cc(S(=O)(=O)NCCc3ccc(NS(=O)(=O)c4c(C)noc4C)cc3)c(O)c2n1 [Example 65]
147 to 152 °C (dec.)

Fill in reported melting point for this entry: COc1ccc(/C=C/c2ccc3ccc(C(=O)NCc4ccc(Cl)cc4)c(O)c3n2)cc1 [Example 47]
200 to 201 °C

Please indicate melting point recorded for CCCCCCCNC(=O)c1ccc2ccc(C(F)(F)F)nc2c1O [Example 56]
97 to 99 °C

Provide only the value of recorded melting point for O=C(NCc1ccc(Cl)cc1)c1cc(Cl)c2cccnc2c1O [Example 11]
163 to 166 °C

Indicate the recorded melting point value for this compound: Br.O=S(=O)(NCCCc1ccccc1)c1cc(Cl)c2cccnc2c1O [Example 21]
210 to 212 °C (dec.)

Consider the compound Cc1ccc2c(Cl)cc(S(=O)(=O)NCCSc3ccccc3)c(O)c2n1 [Example 26] and give its recorded melting point.
136 to 139 °C

Write down melting point measured for item O=C(NCc1ccc(Cl)cc1)c1ccc2ccc[n+]([O-])c2c1O [Example 58]
178 to 183 °C

Identify measured melting point corresponding to Cc1ccc2c(Cl)cc(S(=O)(=O)NCc3ccc(Cl)cc3)c(O)c2n1 [Example 17]
158 to 161 °C (dec.)

Quick one: give measured melting point for CCCCCCCNC(=O)c1ccc2ccc(/C=C/c3ccc(OC)cc3)nc2c1O [Example 48]
115 to 116 °C

Output melting point of O=C(NCc1ccc(Cl)cc1)c1cc(Br)c2cccnc2c1O [Example 9]
148 to 151 °C

Identify measured melting point corresponding to Cc1ccc2ccc(C(=O)NCc3ccc(Cl)cc3)c(O)c2n1 [Example 10]
95 to 98 °C

Tell us which melting point value is on record for O=S(=O)(NCCc1ccc(Cl)cc1)c1cc(Cl)c2cccnc2c1O [Example 23]
192 to 194 °C

Quote melting point reported for Cc1ccc2c(Cl)cc(S(=O)(=O)NCc3cccc(Cl)c3)c(O)c2n1 [Example 33] please.
52 to 54 °C

Could you please provide reported melting point for Cc1ccc2c(Cl)cc(S(=O)(=O)NCCOc3ccccc3)c(O)c2n1 [Example 35] ? Thanks!
106 to 107 °C

// Input: CC(C)C[C@H](Nc1nnc(NC(=O)c2ccc3cccnc3c2O)s1)C(=O)OC(C)(C)C.O (hydrate or solvate) . Output its melting point only.
214 to 215 °C

Give melting point for the following compound: Cc1ccc2c(Cl)cc(C(=O)NCCCc3ccccc3)c(O)c2n1 [Example 69]
109 to 111 °C

Identify measured melting point associated with Cc1ccc2c(Cl)cc(C(=O)NCc3ccc(Cl)cc3)c(O)c2n1 [Example 68]
128 to 130 °C

Given Cc1ccc2c(Cl)cc(S(=O)(=O)NCc3ccccn3)c(O)c2n1 [Example 59] , respond with its melting point.
185 to 186 °C

Tell me its melting point given Cc1ccc2c(Cl)cc(S(=O)(=O)NCCCCc3ccccc3)c(O)c2n1 [Example 61] as the entry.
84 to 86 °C

Give melting point for the following compound: O=C(NCC(O)c1ccccc1)c1ccc2ccc(/C=C/c3ccccc3)nc2c1O (stereo not drawn) [Example 50]
83 to 86 °C

* * *

Target: HCMV polymerase (Human cytomegalovirus)
Construct: made in house; host or cells: recombinant baculovirus-infected SF-9 cells
Experiment: HCMV polymerase assay (scintillation proximity assay)
Format: biochemical
Conditions: Table 10; CMV pol Assay; read-out: IC50
Protocol: The HCMV polymerase assay is performed using a scintillation proximity assay (SPA) as described in several references, such as N. D. Cook, et al., Pharmaceutical Manufacturing International, pages 49-53 (1992); K. Takeuchi, Laboratory Practice, September issue (1992); U.S. Pat. No. 4,568,649 (1986); which are incorporated by reference herein. Reactions are performed in 96-well plates. […] Plates are incubated 10 min. at 37° C., then equilibrated to room temperature, and counted on a Packard Topcount. […]
Could you please report measured IC50 for the items listed next?

Give IC50 for O=C(Nc1ccccc1I)c1ccc2cccnc2c1O
12.5 µM

Give IC50 for the following molecule: Cc1ccccc1NC(=O)c1ccc2cccnc2c1O
13.4 µM

Read off the recorded IC50 for O=C(Nc1cc(Cl)ccc1O)c1ccc2cccnc2c1O
13.8 µM

Report IC50, nothing else, for this molecule: Cc1ccc(Cl)c(NC(=O)c2ccc3cccnc3c2O)c1
7.5 µM

// fetch IC50 given entry O=C(Nc1ccc2[nH]ccc2c1)c1ccc2cccnc2c1O
13.6 µM

Quick one: give measured IC50 for Cc1cccc(NC(=O)c2ccc3cccnc3c2O)c1 [drawing 224]
12.2 µM

Could you please provide reported IC50 for Cc1cc(F)ccc1NC(=O)c1ccc2cccnc2c1O ? Thanks!
10.2 µM
